SYSTEM_NAME: Delta-type opioid receptor (Homo sapiens)
Sequence (P41143 whole entry): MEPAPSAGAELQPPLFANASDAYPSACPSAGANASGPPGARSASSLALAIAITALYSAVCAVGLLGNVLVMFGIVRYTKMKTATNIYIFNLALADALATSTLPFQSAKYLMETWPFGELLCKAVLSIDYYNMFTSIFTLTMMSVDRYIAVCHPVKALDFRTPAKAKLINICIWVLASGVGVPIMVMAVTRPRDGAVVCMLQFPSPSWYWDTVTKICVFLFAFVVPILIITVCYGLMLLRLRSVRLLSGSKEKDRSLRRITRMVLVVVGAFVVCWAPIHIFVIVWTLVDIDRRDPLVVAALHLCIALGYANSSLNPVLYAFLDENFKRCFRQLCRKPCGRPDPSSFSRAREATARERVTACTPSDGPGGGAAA
ASSAY_SUMMARY: Counterscreen for agonists of heterodimerization of the mu 1 (OPRM1) and delta 1 (OPRD1) opioid receptors: Luminescence-based cell-based high throughput dose response assay to identify agonists of OPRD1 homodimerization. [Related pubchem assays (depositor defined):AID504326, AID504355, AID504692, AID504904, AID504905]
Format: functional
Active and inactive are the calls of the source. Cut-off read from the data, not from the text of the source: active = EC50 of 10 µM or less and inactive = more.
ATTRIBUTE_MEASURED: EC50

COC(=O)C1=C(C)N(CCCC(=O)O)C(=O)NC1c1ccccc1OS(=O)(=O)c1ccccc1[N+](=O)[O-] (stereo unspecified) ... 15.5 µM (inactive)
Cc1cccc(NC(=S)NC(=O)CCc2ccccc2)c1 ... > 92.5 µM (inactive)
O=C(c1sc2ccccc2c1Cl)N(Cc1ccco1)C1CCS(=O)(=O)C1 (stereo unspecified) ... 29.2 µM (inactive)

Task: What does the data say about its EC50? Entry: COC(=O)C1=C(C)N(CCCC(=O)O)C(=O)NC1c1ccccc1OS(=O)(=O)c1ccc([N+](=O)[O-])cc1 (stereo unspecified)
Output: 11.7 µM (inactive)

Task: For COc1ccc(C(CNc2ncnc3sc(C)c(C)c23)N(C)C)cc1 (stereo unspecified) , what is its reported EC50?
Output: 70.5 µM (inactive)

Task: Return reported EC50; argument: CN(C)C(CNC(=O)c1ccc(Br)cc1)c1ccco1 (stereo unspecified)
Output: > 92.5 µM (inactive)
